- Tested on: KM12 colon
- Procedure Summary: NCI tumour cell line growth inhibition, 48 h
Observation Type: GI50

INPUT: Quick one: GI50 of CC(=O)O[C@H]1CCC2(C)C(=CCC3C2CCC2(C)/C(=N/OC(=O)c4ccc(N(CCCl)CCCl)cc4)CCC32)C1 (stereo not given in full) ?
OUTPUT: 7.13 µM

More entries:
INPUT: Quick one: GI50 of O=C(N/N=C/c1ccccc1O)c1ccccc1O ?
OUTPUT: 0.766 µM

INPUT: Quick one: GI50 of FC(F)(F)c1nnn[n-]1.[Au+].c1ccc([PH+](c2ccccc2)c2ccccc2)cc1 ?
OUTPUT: 13.2 µM

INPUT: Quick one: GI50 of CCn1cc(C(=O)O)c(=O)c2cc(F)c(N3CCN(S(=O)(=O)c4ccc(Cl)cc4)CC3)cc21 ?
OUTPUT: 4.07 µM

Values were extracted from PubChem BioAssay (NCI).
